# test.method.notes: NCI Yeast Anticancer Drug Screen. Data for the rad50 strain (AID 155);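 further: 0% = growth of vehicle-only cultures of the same strain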
# run.conditions: S. cerevisiae rad50 strain growth inhibition; at 50.0 µM; hits give high values
Compounds without any hit were thinned out: in the full panel of roughly 79,000, 15% have a hit. The source made the active and inactive calls. No stated cut-off is given here; in the data, active means growth inhibition above about 70%; inactive means the rest.
Below: a set of entries, each annotated with reported growth inhibition.

{"columns": ["compound", "growth inhibition"],
 "data": [
  ["CCN1CSC(=S)N(Cc2ccccc2)C1", "16.9% (inactive)"],
  ["CC1(C)C(=O)/C=C\\C(=O)C(C)(C)C2=CC=C(O2)C(C)(C)C(=O)C(Br)C(Br)C(=O)C(C)(C)C2=CC=C1O2 (stereo not drawn)", "-20.4% (inactive)"]
]}

Could you now consider this next compound?
If you can, please state the reported growth inhibition value of `Cn1c(=O)[nH]c(=O)c2[nH]c(=O)c(=O)n(C)c21` .
-3.15% (inactive)

* * *

# test.method.notes: NCI Yeast Anticancer Drug Screen. Data for the mlh1 rad18 strain (AID 175)
# run.conditions: S. cerevisiae mlh1 rad18 strain growth inhibition; at 50.0 µM; hits give high values
The panel holds about 79,000 compounds, 15% with a hit somewhere; the sample as a whole holds those more often.
experimental.endpoint: growth inhibition (%)
Just the number please, in %, no unit attached.

# count of solved cases: 2
{"columns": ["molecule", "experimental.endpoint", "observed.measurement"],
 "data": [
  ["CCC(c1ccco1)C(C#N)C(=O)OC(C)(C)C (stereo unspecified)", "growth inhibition", -27.7],
  ["CCC(CO)(C(=O)O)c1ccccc1 (stereo unspecified)", "growth inhibition", 2.3]
]}

Looking for the measured growth inhibition of `COc1cccc(Br)c1OC` , can you help?
-3.1

For O=C(C1OC1c1cccc([N+](=O)[O-])c1)C12CC3CC(CC(C3)C1)C2 (stereo unspecified) , what is its reported growth inhibition?
54.5

* * *

Known growth inhibition of a selection of molecules
# test.method.notes: NCI Yeast Anticancer Drug Screen. Data for the bub3 strain (AID 167)
# run.conditions: S. cerevisiae bub3 mutant strain, at 50.0 µM, hits give high values
The panel holds about 79,000 compounds, 15% with a hit somewhere; the sample as a whole holds those more often.
// units = %; emit number, no label

Param item = `O=C(CCCN1CC=C(n2c(=O)[nH]c3ccccc32)CC1)c1cccs1` ; retrieve measured growth inhibition.
33.1

Give its growth inhibition value. Item: `CCC(=O)SCC[N+](C)(C)C`
27.6

Report growth inhibition for `COc1ccc(NC(N)=O)cc1` please.
-6.35

Which growth inhibition is reported for this molecule? `O=C1c2c(/C=C/c3ccc(Cl)c(Cl)c3)nc3ccccc3c2C(=O)N1CCN1CCCCC1`
18.4

Give the measured growth inhibition of CC1CC(C)(C)NC(c2ccccc2)O1 (configuration not stated) .
-14.4

May I ask what growth inhibition has been recorded for COc1cccc(NC(=O)CC(=O)N2N=C(N(CCC#N)c3ccc(Cl)cc3)CC2c2ccccc2)c1 (configuration not stated) ?
-0.15

Which growth inhibition is reported for this molecule? `Cc1ccc(S(=O)(=O)CCCCS(=O)(=O)c2ccc(C)cc2)cc1`
-27.2

Look up growth inhibition for this molecule: C=CCCCCC1CCC2CCC(CCCCC=C)N12 (configuration not stated)
49.4

Item under review: `CCOC(CNCc1ccncc1)OCC` . Reported growth inhibition?
-31
